In this section we review reported GI50 values for a set of compounds.
Tested on: U251 CNS

Known GI50 results, listed for orientation:
mol | tested.target | GI50
COc1cc(CSc2nc3ccc(C)cc3c(=O)n2-c2ccccc2)cc(OC)c1OC | U251 CNS | 3.77 µM
C(#Cc1ccccc1C#Cc1cccs1)c1cccs1 | U251 CNS | 66.8 µM
O=C([CH-]C(=O)c1ccccc1)c1ccccc1.O=C([CH-]C(=O)c1ccccc1)c1ccccc1.[La+3].[OH-].[OH3+] | U251 CNS | 15.2 µM
CCC[CH2][Sn]1([CH2]CCC)[O]C(=O)c2cccnc2[O]1 | U251 CNS | 1.89 µM

Read the next record carefully.
Consider the compound shown here: COc1cc2c(cc1C)NC(=O)/C2=C/c1ccccn1 What is its recorded GI50? 2.92 µM

====

Measured GI50 of individual entries
Test system: SNB-19 CNS
measurement.protocol: NCI tumour cell line growth inhibition, 48 h

Worked examples follow.
molecule | tested.target | GI50
CCC[CH2][Sn]1([CH2]CCC)[O]C(=O)c2cccnc2[O]1 | SNB-19 CNS | 2650 nM
COc1cc(NC(C)CCCNC2CN3CCC2CC3)c2ncccc2c1 (stereo not given) | SNB-19 CNS | 15800 nM
COc1ccc2nc3cccc([N+](=O)[O-])c3c(NCCCCCC(=O)O)c2c1 | SNB-19 CNS | 178 nM
c1ccc2[nH]c(-c3ccc(-c4nccc5c4[nH]c4ccccc45)cc3)nc2c1 | SNB-19 CNS | 4210 nM

# input for lookup
Recorded GI50 for CCCCCCCCCCCCCCCCCCOc1ccccc1CC(=O)OCC[N+]1(C)CCCCC1 , please? 2050 nM

====

We begin with a simple list: items and their reported TGI.
System: OVCAR-5 ovarian
measurement.protocol: NCI tumour cell line growth inhibition, 48 h

Given the entry OC(c1ccccc1)(c1ccccc1)c1ccncc1 , report its measured TGI. > 100 µM

Repeat with OC1(c2cccs2)c2cccc(Cl)c2C(O)(c2cccs2)c2c(Cl)cccc21 (stereo not drawn) > 100 µM

Also N#Cc1c(-c2ccccc2)cc(-c2ccccc2)n(C2OC(CO)C(O)C(O)C2O)c1=S (stereo not drawn) ? > 100 µM

Also COc1ccc2nc3cccc([N+](=O)[O-])c3c(NCCCCCC(=O)O)c2c1 , if possible. 1.11 µM

// repeat for CC(=O)OCC1OC(n2cnc(C(N)=S)c2N)C(OC(C)=O)C1OC(C)=O (stereo not drawn) and report > 100 µM

Would you kindly repeat that for O=[N+]([O-])O.[Cu+2].[NH-]CC[NH-].[NH-]CC[NH-] ? > 10 µM

Do the same for O=C1Nc2ccccc2/C1=C/C(=O)c1coc2c1C(=O)c1ccccc1C2=O please > 100 µM

Field entry: CCOc1ccc2c(c1)[n+]([O-])c(-c1ccc(Cl)cc1)c(N)[n+]2[O-] > 100 µM

====

TGI by entry:
System: U251 CNS
measurement.protocol: NCI tumour cell line growth inhibition, 48 h

Here is how some molecules turned out for TGI.
molecule | test.value
CN(C)CCN1C(=O)c2ccccc2N(C)c2ccccc21 | > 100 µM
CCCCCCCCCCCCCCCCCCNC(=O)C(N)Cc1ccc(OCc2ccccc2)cn1 (centres undefined) | 35.4 µM
Cn1c2ccccc2c2c(-c3ccccc3)cc3c(c21)C(=O)C=CC3=O | > 9.67 µM
C(=C\c1cccs1)/c1cccc(/C=C/c2cccs2)n1 | > 100 µM
COC(=O)C(=O)C(C(=O)C(=O)Nc1ccc(F)cc1)c1nc2ccc([N+](=O)[O-])cc2[nH]c1=O (centres undefined) | > 100 µM
C=C1c2ccccc2C(=O)c2c1c1c(C(=O)OC)c(O)ccc1n2Cc1ccccc1 | 0.763 µM
C[C@]12CCC(=O)C=C1CC[C@@H]1[C@@H]2CC[C@]2(C)C(=O)NC(=O)C[C@@H]12 | > 100 µM
O=C1c2ccccc2C(O)(O)C1(O)C1(O)C(=O)c2ccccc2C1(O)O (centres undefined) | > 100 µM

Let's switch to this molecule now.
Give U251 CNS TGI for C#Cc1c(F)ccc2cc(O)cc(-c3ncc4c(N5CC6CCC(C5)N6)nc(OC[C@@]56CCCN5C[C@H](F)C6)nc4c3F)c12 31.5 µM

# credit: PubChem BioAssay (NCI)
